System: Rattus norvegicus
Assay: Effect on serum Triglycerides was determined in normal rats at a dose of 0.02 (mmol/kg)/day
Type: functional
# Change >= -30% gives yes, anything below gives no

Prompt: API: above_or_equal(metric=Change, cutoff=-30%) for item CC1(c2ccccc2)OC(C(=O)O)=CC1=O (stereo in doubt; 5b) [ACIFRAN]
Response: no

Prompt: API: above_or_equal(metric=Change, cutoff=-30%) for item CC1(C)OC(C(=O)O)=CC1=O
Response: no

Prompt: API: above_or_equal(metric=Change, cutoff=-30%) for item CC1(c2ccc(Cl)cc2)OC(C(=O)O)=CC1=O (stereo unspecified)
Response: yes

Prompt: API: above_or_equal(metric=Change, cutoff=-30%) for item CC(C)C1(c2ccccc2)OC(C(=O)O)=CC1=O (stereo unspecified)
Response: yes

Prompt: API: above_or_equal(metric=Change, cutoff=-30%) for item CC1(c2ccccc2)OC(=O)C(=O)CC1=O (stereo unspecified)
Response: yes

Prompt: API: above_or_equal(metric=Change, cutoff=-30%) for item COC(=O)C1=CC(=O)C(C)(c2ccccc2)O1 (stereo unspecified)
Response: no
